Assay: Plasma pharmacokinetics (LC–MS/MS, non-compartmental analysis)
Format: in vivo, Japanese patients
Conditions: human, plasma, oral, 800 mg, Cycle 1 Day 1; 800 mg qd; n = 3; read-out: AUC0 − 24, Median
Parameter measured: AUC(0-t) (ng·h/mL)
// return numeric value only (unit: ng·h/mL, not printed)

## Task Identify the reported AUC(0-t) for the following entry. "Cn1c(=O)n(-c2ccc(C(C)(C)C#N)cc2)c2c3cc(-c4cnc5ccccc5c4)ccc3ncc21"
## Result 2560

----------
Experiment: Plasma pharmacokinetics (LC–MS/MS, non-compartmental analysis)
Assay type: in vivo, Japanese patients
Details: human, plasma, oral, 800 mg, Cycle 1 Day 8; 800 mg qd; n = 1; read-out: AUCinf, Median
Parameter measured: AUC(0-inf) (ng·h/mL)
// return numeric value only (unit: ng·h/mL, not printed)

## Task Identify the reported AUC(0-inf) for the following entry. "Cn1c(=O)n(-c2ccc(C(C)(C)C#N)cc2)c2c3cc(-c4cnc5ccccc5c4)ccc3ncc21"
## Result 19900

----------
Assay: Plasma pharmacokinetics (LC–MS/MS, non-compartmental analysis)
Format: in vivo, Japanese patients
Conditions: human, plasma, oral, 1000 mg, Cycle 1 Day 8; 1000 mg qd; n = 7; read-out: AUClast, Median
Parameter measured: AUC(0-t) (ng·h/mL)
// return numeric value only (unit: ng·h/mL, not printed)

## Task Identify the reported AUC(0-t) for the following entry. "Cn1c(=O)n(-c2ccc(C(C)(C)C#N)cc2)c2c3cc(-c4cnc5ccccc5c4)ccc3ncc21"
## Result 9350

----------
Test: Plasma pharmacokinetics (LC–MS/MS, non-compartmental analysis)
Format: in vivo, Japanese patients
Settings: human, plasma, oral, 1200 mg, Cycle 1 Day 1; 1200 mg qd; n = 5; read-out: Cmax, Median
Parameter measured: Cmax

## Task Identify the reported Cmax for the following entry. "Cn1c(=O)n(-c2ccc(C(C)(C)C#N)cc2)c2c3cc(-c4cnc5ccccc5c4)ccc3ncc21"
## Result 403 ng/mL

----------
Experiment: Plasma pharmacokinetics (LC–MS/MS, non-compartmental analysis)
Type: in vivo, Japanese patients
Conditions: human, plasma, oral, 1200 mg, Cycle 1 Day 8; 1200 mg qd; n = 4; read-out: AUClast, Median
Parameter measured: AUC(0-t) (ng·h/mL)
// return numeric value only (unit: ng·h/mL, not printed)

## Task Identify the reported AUC(0-t) for the following entry. "Cn1c(=O)n(-c2ccc(C(C)(C)C#N)cc2)c2c3cc(-c4cnc5ccccc5c4)ccc3ncc21"
## Result 33500

----------
Test: Plasma pharmacokinetics (LC–MS/MS, non-compartmental analysis)
Assay type: in vivo, Japanese patients
Conditions: human, plasma, oral, 1400 mg, Cycle 1 Day 1; 1400 mg qd; n = 5; read-out: Cmax, Median
Parameter measured: Cmax (ng/mL)
// return numeric value only (unit: ng/mL, not printed)

## Task Identify the reported Cmax for the following entry. Cn1c(=O)n(-c2ccc(C(C)(C)C#N)cc2)c2c3cc(-c4cnc5ccccc5c4)ccc3ncc21 [BEZ235]
## Result 733

----------
Assay: Plasma pharmacokinetics (LC–MS/MS, non-compartmental analysis)
Type: in vivo, Japanese patients
Conditions: human, plasma, oral, 1200 mg, Cycle 1 Day 8; 1200 mg qd; n = 1; read-out: AUCinf, Median
Parameter measured: AUC(0-inf)
Please make sure the unit comes right after the number.

## Task Identify the reported AUC(0-inf) for the following entry. Cn1c(=O)n(-c2ccc(C(C)(C)C#N)cc2)c2c3cc(-c4cnc5ccccc5c4)ccc3ncc21 [BEZ235]
## Result 14400 ng·h/mL
